The origin of these recorded values is paper PMC3347614.

targetDesc: DNA gyrase (Escherichia coli, UniProt P0AES4+P0AES6)
Construct: His6 (N); made in house; host or cells: Escherichia coli Rosetta (DE3)
assayOverview: Inhibition of DNA gyrase supercoiling of relaxed plasmid pBR322 (agarose gel electrophoresis)
Assay type: biochemical, E. coli
condition: qualitative statement
outcomeMeasure: Inhibitory activity towards DNA gyrase, in words

> print(dat)
                                   compound                                targetdesc                 observed
1         C[C@H]1COc2c(ccc(F)c2F)N1 [IOS-S]  DNA gyrase (Escherichia coli, UniProt P0AES4+P0AES6)  no significant activity
2  CC1COc2c(ccc(F)c2F)N1 (racemic) [IOS-RS]  DNA gyrase (Escherichia coli, UniProt P0AES4+P0AES6)  no significant activity
